target: IGF-1R (Homo sapiens (Human), UniProt P08069); experiment: Example B-1: IGF-1R Assay (PC3 cells, IGF1 stimulation, AlphaLISA); assay type: cell-based; conditions: 200 ng/mL IGF1 stimulation, read-out: Biological Activity against IGF-1R IC50
Sequence (P08069 31-1367): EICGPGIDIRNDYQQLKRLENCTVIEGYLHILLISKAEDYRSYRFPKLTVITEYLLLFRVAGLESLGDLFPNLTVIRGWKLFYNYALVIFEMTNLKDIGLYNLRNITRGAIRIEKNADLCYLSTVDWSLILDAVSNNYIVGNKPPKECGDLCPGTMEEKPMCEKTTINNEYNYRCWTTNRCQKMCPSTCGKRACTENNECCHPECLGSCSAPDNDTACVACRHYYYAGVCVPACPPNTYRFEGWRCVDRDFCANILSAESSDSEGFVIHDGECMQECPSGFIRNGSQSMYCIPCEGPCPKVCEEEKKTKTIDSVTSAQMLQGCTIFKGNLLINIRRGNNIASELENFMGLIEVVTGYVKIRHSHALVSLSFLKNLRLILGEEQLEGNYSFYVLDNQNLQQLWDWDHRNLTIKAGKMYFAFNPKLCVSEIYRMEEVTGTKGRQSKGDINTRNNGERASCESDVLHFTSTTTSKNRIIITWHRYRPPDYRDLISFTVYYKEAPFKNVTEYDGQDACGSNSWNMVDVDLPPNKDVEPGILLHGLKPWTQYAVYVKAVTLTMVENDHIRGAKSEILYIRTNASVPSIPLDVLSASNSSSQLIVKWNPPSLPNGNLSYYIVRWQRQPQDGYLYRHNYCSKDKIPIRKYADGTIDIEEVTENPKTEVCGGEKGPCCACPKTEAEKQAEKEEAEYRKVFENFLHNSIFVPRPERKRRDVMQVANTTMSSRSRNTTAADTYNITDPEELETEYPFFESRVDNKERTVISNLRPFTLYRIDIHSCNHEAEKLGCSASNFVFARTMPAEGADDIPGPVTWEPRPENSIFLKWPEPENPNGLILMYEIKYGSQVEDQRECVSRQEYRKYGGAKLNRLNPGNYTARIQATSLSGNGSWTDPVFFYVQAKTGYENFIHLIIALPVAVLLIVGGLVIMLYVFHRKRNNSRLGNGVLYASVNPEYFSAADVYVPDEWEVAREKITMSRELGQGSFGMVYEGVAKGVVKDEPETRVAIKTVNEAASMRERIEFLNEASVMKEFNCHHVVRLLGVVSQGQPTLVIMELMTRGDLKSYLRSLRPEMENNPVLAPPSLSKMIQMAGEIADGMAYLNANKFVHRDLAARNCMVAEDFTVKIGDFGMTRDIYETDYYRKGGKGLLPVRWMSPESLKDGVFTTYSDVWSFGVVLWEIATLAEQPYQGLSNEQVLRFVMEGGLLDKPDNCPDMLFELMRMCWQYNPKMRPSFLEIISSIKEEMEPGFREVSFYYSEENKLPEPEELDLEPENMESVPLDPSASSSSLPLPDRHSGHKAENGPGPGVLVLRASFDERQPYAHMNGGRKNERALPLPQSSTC
experimental-readout: IC50

>>> endpoint_result("COc1cc(Nc2nccc(Nc3cc4cccc(F)c4[nH]c3=O)n2)cnc1O[C@H]1CCN(C)C1 [Compound 166]")
"500 to 2000 nM"
>>> endpoint_result("COc1cc(Nc2nccc(Nc3cc4cccc(F)c4[nH]c3=O)n2)cnc1N1CCNC(C(F)F)C1 (stereo not shown) [Compound 233]")
"≤ 500 nM"
>>> endpoint_result("COc1cc(Nc2nccc(Nc3cnc4c(c3)SCCC4)n2)ccc1O[C@H]1C[C@@H](N(C)C)C1 [Compound 366]")
"≤ 500 nM"
>>> endpoint_result("COc1cc(Nc2nccc(Nc3cnc4c(c3)OCCC4)n2)ccc1OCCCN1CCCCC1 [Compound 383]")
"≤ 500 nM"

----------
target: IGF-1R (Homo sapiens (Human), UniProt P08069); assay: Example B-2: IGF-1R Assay (PathHunter cell lines, EC80 agonist challenge); format: cell-based; conditions: read-out: IC50 (Biological Activity against IGF-1R)
Sequence (P08069 31-1367, species assumed): as the sequence (P08069 31-1367) above
pIC50: −log10 of the molar value.
Reported pIC50 values follow for various compounds
experimental-readout: pIC50

>>> endpoint_result("CN(C)CC(=O)N1CCc2ncc(Nc3nccc(Nc4cnc5ccccc5c4)n3)cc21 [Compound 137]")
"≥ 6.30"
>>> endpoint_result("COc1cc(Nc2nccc(Nc3cnc4cc(F)c(F)cc4c3)n2)ccc1O[C@H]1C[C@@H](N(C)C)C1 [Compound 115]")
"5.70 to 6.30"
>>> endpoint_result("CN(C)C[C@H]1COc2cc(Nc3nccc(Nc4cnc5ccc(Cl)cc5c4)n3)ccc2O1 [Compound 144]")
"≥ 6.30"
>>> endpoint_result("COc1cc(Nc2nccc(Nc3cc4cc(Cl)ccc4[nH]c3=O)n2)ccc1O[C@H]1C[C@H](N(C)C)C1 [Compound 109]")
"5.70 to 6.30"

----------
target: IGF-1R (Homo sapiens (Human), UniProt P08069); test: Example B-1: IGF-1R Assay (PC3 cells, IGF1 stimulation, AlphaLISA); format: cell-based; conditions: 200 ng/mL IGF1 stimulation, read-out: Biological Activity against IGF-1R IC50
experimental-readout: IC50

>>> endpoint_result("COc1cc(N2CCN(C3COC3)CC2)ncc1Nc1ncc(F)c(Nc2cc3ccccc3nc2C(N)=O)n1")
"≤ 500 nM"
>>> endpoint_result("COc1cc(Nc2nccc(Nc3cnc4c(c3)CC(C)(C)CC4)n2)ccc1O[C@H]1C[C@H](N(C)C)C1")
"≤ 500 nM"
>>> endpoint_result("CN(C)CC1COc2cc(Nc3nccc(Nc4cc5ccccc5nc4C(N)=O)n3)ccc2O1 (stereo not shown)")
"≤ 500 nM"
>>> endpoint_result("COc1cc(Nc2nccc(Nc3cnc4cc(F)c(F)cc4c3)n2)cnc1OC1CCNCC1(F)F (stereo not shown)")
"≤ 500 nM"
>>> endpoint_result("COc1cc(Nc2cc(Nc3cnc4ccccc4n3)ccn2)ccc1O[C@H]1C[C@@H](N(C)C)C1")
"≤ 500 nM"
>>> endpoint_result("COc1cc(Nc2nccc(Nc3cnc4c(c3)CCCC43CCCC3)n2)ccc1OCCCN1CCCCC1")
"≤ 500 nM"
>>> endpoint_result("COc1cc(Nc2nccc(Nc3ccc4c(c3)CCCN4C)n2)ccc1OCCCN1CCCCC1")
"≤ 500 nM"
>>> endpoint_result("COc1cc(Nc2nccc(Nc3ccc4c(c3)CCN(C)C4)n2)ccc1OCCCN1CCCCC1")
"500 to 2000 nM"
>>> endpoint_result("COc1cc(Nc2nccc(Nc3cnc4c(c3)OCC(C)O4)n2)ccc1OCCCN1CCCCC1 (stereo not shown)")
"≤ 500 nM"
>>> endpoint_result("COc1cc(Nc2nccc(Nc3cnc4ccccc4c3)n2)ccc1O[C@H]1C[C@@H](N(C)C)C1")
"≤ 500 nM"
>>> endpoint_result("COc1cc(Nc2nccc(Nc3cnc4ccc(Cl)cc4c3)n2)cnc1N1CCN(C)CC1")
"≤ 500 nM"
>>> endpoint_result("COc1cc(Nc2nccc(Nc3cnc4c(c3)CCC3(CCC3)C4)n2)ccc1O[C@H]1C[C@H](N(C)C)C1")
"≤ 500 nM"
>>> endpoint_result("COc1cc(Nc2nccc(Nc3cnc4ccccc4c3)n2)ccc1O[C@H]1C[C@H](N2CCS(=O)(=O)CC2)C1")
"≤ 500 nM"
>>> endpoint_result("COc1ccc2cc(Nc3ccnc(Nc4ccc(OCCCN5CCOCC5)cc4)n3)cnc2c1")
"2000 to 10000 nM"
>>> endpoint_result("COc1cc(Nc2nccc(Nc3cnc4cc(F)c(F)cc4c3)n2)cnc1O[C@H]1C[C@@H](N(C)C)C1")
"500 to 2000 nM"
>>> endpoint_result("COc1cc(Nc2nccc(Nc3ccc4c(c3)CCCC4=O)n2)ccc1OCCCN1CCCCC1")
"≤ 500 nM"
